Below, each entry is listed alongside its reported CC50.
# System: HEL
# Test Details: The concentration required to reduce cell growth by 50% was measured on Human Embryonic Lung (HEL) cells
# Format: functional
Assay Readout: CC50

> print(dat)
                                 smiles.str       result
1     O=C1NS(=O)(=O)N(COCc2ccccc2)c2ccccc21   > 50 µg/mL
2             O=C1c2ccccc2NS(=O)(=O)N1COCCO    160 µg/mL
3         O=C1c2ccccc2NS(=O)(=O)N1Cc1ccccc1   > 50 µg/mL
4  O=C(OCCOCN1c2ccccc2C(=O)N(Cc2ccccc2)S1(=O)=O)c1ccccc1     17 µg/mL
5          Nc1nc2c(ncn2COC(CO)CO)c(=O)[nH]1   > 50 µg/mL
6  O=C1c2ccccc2N(COCc2ccccc2)S(=O)(=O)N1Cc1ccccc1   > 50 µg/mL
7       CC(=O)OCCOCN1c2ccccc2C(=O)NS1(=O)=O  > 200 µg/mL
8  O=C1c2ccccc2N(Cc2ccccc2)S(=O)(=O)N1COCc1ccccc1   > 40 µg/mL
9  C#CCOCN1c2ccccc2C(=O)N(Cc2ccccc2)S1(=O)=O   > 50 µg/mL
